target: T1, murine BACE1 ECD; assay: Octet, pH 7.5
T1 construct: analyte of the Octet assay (200 nM) and enzyme of the first short substrate assay
T1 sequence (single chain, as listed by the source limits assumed): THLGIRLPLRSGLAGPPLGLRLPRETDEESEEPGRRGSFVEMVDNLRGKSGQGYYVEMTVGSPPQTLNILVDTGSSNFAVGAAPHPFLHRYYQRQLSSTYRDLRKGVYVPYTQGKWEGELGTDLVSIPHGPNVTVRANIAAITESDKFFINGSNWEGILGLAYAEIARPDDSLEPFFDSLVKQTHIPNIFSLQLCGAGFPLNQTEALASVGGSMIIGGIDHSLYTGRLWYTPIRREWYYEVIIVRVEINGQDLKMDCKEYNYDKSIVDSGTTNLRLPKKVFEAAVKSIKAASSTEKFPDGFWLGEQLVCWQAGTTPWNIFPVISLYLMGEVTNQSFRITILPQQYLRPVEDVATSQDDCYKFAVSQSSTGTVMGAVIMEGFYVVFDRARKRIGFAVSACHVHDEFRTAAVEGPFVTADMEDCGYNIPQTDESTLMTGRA
measured-endpoint: Kd

Reference set, count: 2
{"columns": ["binder", "Kd"],
 "data": [
  ["6307 (antibody, V domains shown, anti-BACE1 IgG) VH: QLQLQESGPGLVKPSETLSLTCTVSGGSISWSSYYWSWIRQPPGKGLEWIGSIYRSGRTYYNPSLKGRVTISVDTSKNQFSLKLSSVTAADTAVYYCARVGHGINYFDLWGRGTLVTVSS VL: EIVLTQSPATLSLSPGERATLSCRASQSVSSYLAWYQQKPGQAPRLLIYDASNRATGIPARFSGSGSGTDFTLTISSLEPEDFAVYYCQQSIVWPPRTFGGGTKVEIK", "< 0.15 nM"],
  ["6303 (antibody, V domains shown, anti-BACE1 IgG) VH: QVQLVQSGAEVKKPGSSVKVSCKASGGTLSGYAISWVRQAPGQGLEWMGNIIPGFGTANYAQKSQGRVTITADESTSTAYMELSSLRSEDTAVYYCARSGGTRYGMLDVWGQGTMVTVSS VL: EIVMTQSPATLSVSPGERATLSCRASQSVSSNLAWYQQKPGQAPRLLIFGASTRATGIPARFSGSGSGTEFTLTISSLQSEDFAVYYCQQLLTWPPRTFGGGTKVEIK", "< 0.35 nM"]
]}

Kindly review the next binder as well.
Endpoint output: Kd of 6310 (antibody, V domains shown, anti-BACE1 IgG) VH: QLQLQESGPGLVKPSETLSLTCTVSGGSISWSSYYWSWIRQPPGKGLEWIGSIYRSGRTYYNPSLKSRVTISVDTSKNQFSLKLSSVTAADTAVYYCARVGHGINYFDLWGRGTLVTVSS VL: EIVLTQSPATLSLSPGERATLSCRASQSVSSYLAWYQQKPGQAPRLLIYDASNRATGIPARFSGSGSGTDFTLTISSLEPEDFAVYYCQQSVTWPPRTFGGGTKVEIK . Value?
0.47 nM
